Can you tell me melting temperature for the items I'm about to list?
Test system: HeLa Kyoto;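 further: HeLa Kyoto cells synchronized by double thymidine or nocodazole block, proteins quantified by TMT10plex mass spectrometry, three independent biological replicates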
Test: melting temperature (median over replicates), in situ; higher = more thermally stable
Details: cell cycle stage: G1/S
Numbers only, in °C.

Requested field: melting temperature. Item: MAAGDGDVKLGTLGSGSESSNDGGSESPGDAGAAAEGGGWAAAALALLTGGGEMLLNVALVALVLLGAYRLWVRWGRRGLGAGAGAGEESPATSLPRMKKRDFSLEQLRQYDGSRNPRILLAVNGKVFDVTKGSKFYGPAGPYGIFAGRDASRGLATFCLDKDALRDEYDDLSDLNAVQMESVREWEMQFKEKYDYVGRLLKPGEEPSEYTDEEDTKDHNKQD [PGRMC2] 52.3

Another: MALRVVRSVRALLCTLRAVPSPAAPCPPRPWQLGVGAVRTLRTGPALLSVRKFTEKHEWVTTENGIGTVGISNFAQEALGDVVYCSLPEVGTKLNKQDEFGALESVKAASELYSPLSGEVTEINEALAENPGLVNKSCYEDGWLIKMTLSNPSELDELMSEEAYEKYIKSIEE [GCSH] 60

Another: MPNIVLFSGSSHQDLSQRVADRLGLELGKVVTKKFSNQETSVEIGESVRGEDVYIIQSGCGEINDNLMELLIMINACKIASSSRVTAVIPCFPYARQDKKDKSRAPISAKLVANMLSVAGADHIITMDLHASQIQGFFDIPVDNLYAEPAVLQWIRENIAEWKNCIIVSPDAGGAKRVTSIADRLNVEFALIHKERKKANEVDRMVLVGDVKDRVAILVDDMADTCGTICHAADKLLSAGATKVYAILTHGIFSGPAISRINNAAFEAVVVTNTIPQEDKMKHCTKIQVIDISMILAEAIRRTHNGESVSYLFSHVPL [PRPS2] 55.1

Another: MANNDAVLKRLEQKGAEADQIIEYLKQQVSLLKEKAILQATLREEKKLRVENAKLKKEIEELKQELIQAEIQNGVKQIPFPSGTPLHANSMVSENVIQSTAVTTVSSGTKEQIKGGTGDEKKAKEKIEKKGEKKEKKQQSIAGSADSKPIDVSRLDLRIGCIITARKHPDADSLYVEEVDVGEIAPRTVVSGLVNHVPLEQMQNRMVILLCNLKPAKMRGVLSQAMVMCASSPEKIEILAPPNGSVPGDRITFDAFPGEPDKELNPKKKIWEQIQPDLHTNDECVATYKGVPFEVKGKGVCRAQTMSNSGIK [AIMP1] 48.3

Another: MPKVKSGAIGRRRGRQEQRRELKSAGGLMFNTGIGQHILKNPLIINSIIDKAALRPTDVVLEVGPGTGNMTVKLLEKAKKVVACELDPRLVAELHKRVQGTPVASKLQVLVGDVLKTDLPFFDTCVANLPYQISSPFVFKLLLHRPFFRCAILMFQREFALRLVAKPGDKLYCRLSINTQLLARVDHLMKVGKNNFRPPPKVESSVVRIEPKNPPPPINFQEWDGLVRITFVRKNKTLSAAFKSSAVQQLLEKNYRIHCSVHNIIIPEDFSIADKIQQILTSTGFSDKRARSMDIDDFIRLLHGFNAEGIHFS [DIMT1] 54.2

// for each sequence in input: emit melting temperature
1. MALLVRVLRNQTSISQWVPVCSRLIPVSPTQGQGDRALSRTSQWPQMSQSRACGGSEQIPGIDIQLNRKYHTTRKLSTTKDSPQPVEEKVGAFTKIIEAMGFTGPLKYSKWKIKIAALRMYTSCVEKTDFEEFFLRCQMPDTFNSWFLITLLHVWMCLVRMKQEGRSGKYMCRIIVHFMWEDVQQRGRVMGVNPYILKKNMILMTNHFYAAILGYDEGILSDDHGLAAALWRTFFNRKCEDPRHLELLVEYVRKQIQYLDSMNGEDLLLTGEVSWRPLVEKNPQSILKPHSPTYNDEGL [UQCC1]
2. MQAGKPILYSYFRSSCSWRVRIALALKGIDYKTVPINLIKDRGQQFSKDFQALNPMKQVPTLKIDGITIHQSLAIIEYLEEMRPTPRLLPQDPKKRASVRMISDLIAGGIQPLQNLSVLKQVGEEMQLTWAQNAITCGFNALEQILQSTAGIYCVGDEVTMADLCLVPQVANAERFKVDLTPYPTISSINKRLLVLEAFQVSHPCRQPDTPTELRA [GSTZ1]
3. MEPGPDGPAASGPAAIREGWFRETCSLWPGQALSLQVEQLLHHRRSRYQDILVFRSKTYGNVLVLDGVIQCTERDEFSYQEMIANLPLCSHPNPRKVLIIGGGDGGVLREVVKHPSVESVVQCEIDEDVIQVSKKFLPGMAIGYSSSKLTLHVGDGFEFMKQNQDAFDVIITDSSDPMGPAESLFKESYYQLMKTALKEDGVLCCQGECQWLHLDLIKEMRQFCQSLFPVVAYAYCTIPTYPSGQIGFMLCSKNPSTNFQEPVQPLTQQQVAQMQLKYYNSDVHRAAFVLPEFARKALNDVS [SRM]
4. MSADAAAGAPLPRLCCLEKGPNGYGFHLHGEKGKLGQYIRLVEPGSPAEKAGLLAGDRLVEVNGENVEKETHQQVVSRIRAALNAVRLLVVDPETDEQLQKLGVQVREELLRAQEAPGQAEPPAAAEVQGAGNENEPREADKSHPEQRELRPRLCTMKKGPSGYGFNLHSDKSKPGQFIRSVDPDSPAEASGLRAQDRIVEVNGVCMEGKQHGDVVSAIRAGGDETKLLVVDRETDEFFKKCRVIPSQEHLNGPLPVPFTNGEIQKENSREALAEAALESPRPALVRSASSDTSEELNSQDSPPKQDSTAPSSTSSSDPILDFNISLAMAKERAHQKRSSKRAPQMDWSKKNELFSNL [SLC9A3R1]
5. MSFRKVNIIILVLAVALFLLVLHHNFLSLSSLLRNEVTDSGIVGPQPIDFVPNALRHAVDGRQEEIPVVIAASEDRLGGAIAAINSIQHNTRSNVIFYIVTLNNTADHLRSWLNSDSLKSIRYKIVNFDPKLLEGKVKEDPDQGESMKPLTFARFYLPILVPSAKKAIYMDDDVIVQGDILALYNTALKPGHAAAFSEDCDSASTKVVIRGAGNQYNYIGYLDYKKERIRKLSMKASTCSFNPGVFVANLTEWKRQNITNQLEKWMKLNVEEGLYSRTLAGSITTPPLLIVFYQQHSTIDPMWNVRHLGSSAGKRYSPQFVKAAKLLHWNGHLKPWGRTASYTDVWEKWYIPDPTGKFNLIRRYTEISNIK [GLT8D1]

1. 54.2
2. 53.5
3. 51.8
4. 56.5
5. 53
